Reported Kd values for the following binders.
- targetUnderTest: T1, human LAP-TGFB1 Fc fusion (human)
- T1 construct: also called human LAP-TGFβ1-Fc; human LAP-TGFβ-Fc isoform 1
- T1 sequence (chain, as listed by the source limits assumed): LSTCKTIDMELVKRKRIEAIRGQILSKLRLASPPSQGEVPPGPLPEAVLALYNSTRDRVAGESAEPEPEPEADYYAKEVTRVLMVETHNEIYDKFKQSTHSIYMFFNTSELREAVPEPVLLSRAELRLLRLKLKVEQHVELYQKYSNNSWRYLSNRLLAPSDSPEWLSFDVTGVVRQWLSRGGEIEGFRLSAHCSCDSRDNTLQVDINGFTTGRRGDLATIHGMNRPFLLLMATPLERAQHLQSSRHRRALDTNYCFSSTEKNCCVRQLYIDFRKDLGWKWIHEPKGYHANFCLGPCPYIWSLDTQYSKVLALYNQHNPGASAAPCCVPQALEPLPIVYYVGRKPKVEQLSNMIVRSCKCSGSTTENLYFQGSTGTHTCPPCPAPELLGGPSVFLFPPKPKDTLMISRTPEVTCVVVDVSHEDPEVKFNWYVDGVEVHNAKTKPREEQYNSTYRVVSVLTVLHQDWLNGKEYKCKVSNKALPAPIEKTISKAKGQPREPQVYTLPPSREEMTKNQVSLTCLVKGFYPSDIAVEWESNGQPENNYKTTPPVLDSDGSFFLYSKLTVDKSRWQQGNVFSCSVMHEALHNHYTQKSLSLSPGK
- experimentSummary: SPR pH 7.4, antigen-Fc captured, Fab analyte

binder	Kd (nM)
60BLH (Fab, V domains shown, also called 12BLM Fab) VH: EVQLVQSGAEVKKPGASVKVSCKASGYTFTSYDMHWVRQAPGQGLEWMGRIDPQSGGVKYAQKFQGRATLTVDTSTSTAYMELSRLRSDDTAVYYCARWDYGGYFDVWGQGTLVTVSS VL: DIQMTQSPSSLSASVGDRVTITCRASQDIYNYLNWYQQKPGKAVKLLIYYTSVLETGVPSRFSGSGSGTDYTLTISSLQPEDFATYFCQQGDELPWTFGQGTKLEIK	0.024
68BLH (Fab, V domains shown, also called 20BLM Fab) VH: EVQLVQSGAEVKKPGASVKVSCKASGYTFTSYDMHWVRQAPGQGLEWMGRIDPQSGGEKYAQKFQGRATLTVDTSTSTAYMELSRLRSDDTAVYYCARYDYGGYFDVWGQGTLVTVSS VL: DIQMTQSPSSLSASVGDRVTITCRASQDIYNYLNWYQQKPGKAVKLLIYYTSRLETGVPSRFSGSGSGTDYTLTISSLQPEDFATYFCQQGDTLPWTFGQGTKLEIK	0.438
63BLH (Fab, V domains shown, also called 15BLM Fab; 015BLM Fab) VH: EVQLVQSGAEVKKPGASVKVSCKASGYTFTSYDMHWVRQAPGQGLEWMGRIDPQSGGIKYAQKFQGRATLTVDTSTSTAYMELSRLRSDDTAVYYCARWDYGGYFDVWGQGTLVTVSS VL: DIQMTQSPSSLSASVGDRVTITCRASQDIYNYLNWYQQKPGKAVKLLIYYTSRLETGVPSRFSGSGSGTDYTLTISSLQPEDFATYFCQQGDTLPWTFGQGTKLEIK	0.297
58BLH (Fab, V domains shown, also called 10BLM Fab) VH: EVQLVQSGAEVKKPGASVKVSCKASGYTFTSYDMHWVRQAPGQGLEWMGRIDPQSGGTKYAQKFQGRATLTVDTSTSTAYMELSRLRSDDTAVYYCARWDYGGYFDVWGQGTLVTVSS VL: DIQMTQSPSSLSASVGDRVTITCRASQDIYNYLNWYQQKPGKAVKLLIYYTSVLETGVPSRFSGSGSGTDYTLTISSLQPEDFATYFCQQGDTLPWTFGQGTKLEIK	0.053
